- ASSAYED TARGET: Glutamate NMDA receptor (Rattus norvegicus) (UniProt P35439+Q00959+Q00960+Q00961+Q62645+Q8VHN2+Q9R1M7)
- PROCEDURE SUMMARY: The compound was tested in vivo for its effect on the NMDA receptor complex following administration by iv infusion in red nucleus assay
- Format: organism-based
- Parameters: unit not given here
MEASURED PROPERTY: Activity

Inquiry: Find the recorded Activity belonging to O=c1[nH]c2cc(Cl)ccc2c(O)c(-c2ccccn2)c1=O and report it.
Reply text: 1.7

(P) COc1cccnc1-c1c(O)c(=O)[nH]c2cc(Cl)ccc2c1=O
(Q) COc1ccc(-c2c(O)c(=O)[nH]c3cc(Cl)ccc3c2=O)cc1
Inquiry: Which record would sort first by descending Activity, P or Q ? Lab log: write the label of the selected item as the result.
Reply text: Q

(P) O=c1[nH]c2cc(Cl)ccc2c(O)c(-c2cccs2)c1=O
(Q) O=c1[nH]c2cc(Cl)ccc2c(O)c(-c2ccccc2)c1=O
Inquiry: Please let me know which one, P or Q , has a lower measured Activity value. Lab log: write the label of the selected item as the result.
Reply text: P
(P: 5.6, Q: 9.4)
